assay: blockers of mitochondrial fusion, WT vs mutant – cell-based, chemical genetic, wild-type and mutant, confirmation (AID 1361); settings: Cell-based mitochondrial fusion phenotype, imaging, WT cells
Calls of active or inactive are those of the source. No rule for the calls is given here.
I'd be grateful if you could share measured IC50 for these entries.

>>> reported("c1ccc2c(-c3c[nH]c4ccccc34)c3ccccc3nc2c1")
"15.3 µM"
>>> reported("COc1ccc(OCC(O)CNCc2ccco2)cc1 (stereo unspecified)")
"> 25 µM (inactive)"
>>> reported("COc1ccc(Br)cc1CN(C)CC(=O)Nc1cc(Cl)cc(Cl)c1")
"9.17 µM"
>>> reported("Nn1c(SCC(=O)Nc2ccc3c(c2)OCO3)nnc1-c1ccncc1")
"> 25 µM (inactive)"
>>> reported("COC(=O)c1ccc(C2C3=C(Nc4nnnn42)c2ccccc2OC3)cc1 (stereo unspecified)")
"> 25 µM (inactive)"

Proceeding to the next compound to report its IC50.
For "CC(C)CNS(=O)(=O)c1ccc(S(=O)(=O)N2CCCN(Cc3ccccc3)C2)cc1" , write its IC50. > 25 µM (inactive)

Values compiled from PubChem BioAssay AID1361.
